Biological target: T1, human PVR (SPR of the humanized variants, Example 5) (human, UniProt P15151 21-343)
T1 sequence: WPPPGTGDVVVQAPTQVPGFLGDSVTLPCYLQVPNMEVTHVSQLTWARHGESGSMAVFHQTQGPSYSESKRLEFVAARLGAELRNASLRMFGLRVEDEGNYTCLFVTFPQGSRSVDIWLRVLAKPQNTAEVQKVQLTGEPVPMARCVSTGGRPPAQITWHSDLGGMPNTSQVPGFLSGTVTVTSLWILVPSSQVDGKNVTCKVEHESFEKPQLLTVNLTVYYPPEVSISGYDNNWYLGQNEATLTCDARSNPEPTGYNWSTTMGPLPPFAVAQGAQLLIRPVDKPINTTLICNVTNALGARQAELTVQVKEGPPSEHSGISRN
Assay: SPR
Assay readout: log10 Kd (log10 of the value in nM)
Values reflect log10 of reported Kd (nM).

1. humanized 5B9 variant VH4/VK1 (antibody, V domains shown) VH: QVQLVQSGAEVKKPGASVKVSCKATGYTFSNYWIEWVRQAPGQGLEWIGEIFPGSGRINFNEKFKGRVTFTADTSISTTYMELSRLRSDDTAVYYCARTKIYGNSFDYWGQGTLVTVSS VL: DIMMTQSPSFLSASVGDRVTITCKASQDVGTAVVWYQQKPGKAPKLLIYWASSRHEGVPDRFTGSGSGTDFTLTISSLQSEDFADYFCQQYSRYPLTFGQGTKLEIK | 0.66
2. humanized 5B9 variant VH1/VK3 (antibody, V domains shown) VH: QVQLVQSGAELKKPGASVKISCKATGYTFSNYWIEWIKQAPGQGLEWIGEIFPGSGRINFNEKFKGRATFTADTSIDTTYMQLSSLTSDDSAVYYCARTKIYGNSFDYWGQGTTVTVSS VL: DIQMTQSPSSLSASVGDRVTITCRASQDVGTAVVWYQQKPGKAPKLLIYWASSRHEGVPSRFSGSGSGTDFTLTISSLQPEDFATYFCQQYSRYPLTFGQGTKLEIK | 0.70
3. IgG4(S241P)_N56E_VH5/Vκ4 (antibody, V domains shown, humanized 5B9 variant with Vk4; also called VH5/Vk4) VH: QVQLVQSGAEVKKPGASVKVSCKATGYTFSNYWIEWVRQAPGQGLEWMGEIFPGSGRINFNEKFKGRVTFTADTSISTAYMELSRLRSDDTAVYYCARTKIYGNSFDYWGQGTLVTVSS VL: DIQMTQSPSSLSASVGDRVTITCRASQDVGTAVAWYQQKPGKAPKSLIYWASSRHEGVPSRFSGSGSGTDFTLTISSLQPEDFATYFCQQYSRYPLTFGQGTKLEIK | 1.89
4. humanized 5B9 variant VH5/VK1 (antibody, V domains shown) VH: QVQLVQSGAEVKKPGASVKVSCKATGYTFSNYWIEWVRQAPGQGLEWMGEIFPGSGRINFNEKFKGRVTFTADTSISTAYMELSRLRSDDTAVYYCARTKIYGNSFDYWGQGTLVTVSS VL: DIMMTQSPSFLSASVGDRVTITCKASQDVGTAVVWYQQKPGKAPKLLIYWASSRHEGVPDRFTGSGSGTDFTLTISSLQSEDFADYFCQQYSRYPLTFGQGTKLEIK | 0.77

# context switch: different binder, same log10 Kd
Field request: log10 Kd | item: IgG4(S241P)_N56E_VH3/Vκ4 (antibody, V domains shown, humanized 5B9 variant with Vk4, as IgG4; also called VH3/Vk4) VH: QVQLVQSGAEVKKPGASVKVSCKATGYTFSNYWIEWIKQAPGQGLEWIGEIFPGSGRINFNEKFKGRVTFTADTSISTTYMELSRLRSDDTAVYYCARTKIYGNSFDYWGQGTLVTVSS VL: DIQMTQSPSSLSASVGDRVTITCRASQDVGTAVAWYQQKPGKAPKSLIYWASSRHEGVPSRFSGSGSGTDFTLTISSLQPEDFATYFCQQYSRYPLTFGQGTKLEIK
1.88
